Reported koff values for the following binders.
Molecular target: T1, human IL-2Rβ (human, UniProt P14784 27-240, limits assumed)
T1 construct: Recombinant protein, coated (ELISA) or immobilised on CM5 (SPR); also called hu IL-2R; interleukin 2 receptor β-chain
T1 sequence: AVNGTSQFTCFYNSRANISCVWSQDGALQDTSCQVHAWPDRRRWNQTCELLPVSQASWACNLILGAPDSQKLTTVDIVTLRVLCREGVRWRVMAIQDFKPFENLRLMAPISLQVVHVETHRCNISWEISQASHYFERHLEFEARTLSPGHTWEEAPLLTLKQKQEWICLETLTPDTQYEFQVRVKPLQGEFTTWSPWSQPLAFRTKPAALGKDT
Assay: SPR (Biacore), P.E. off-rate ranking
Your answer is read as s⁻¹, so omit the unit and give the number.

Some binders with recorded koff:
binder	metric-name	reading
FJ1427_P035MP03A02 (VHH, soluble VHH in periplasmic extract; also called clone nr) VHH: QVQLVESGGGLVQAGGSLRLSCAASGGTFSSYAMGWFRQAPGKEREFVAATTRGGGRTMYAVSTEGRFTCSRDNAENTVYLQMNSLKPEDTAIYYCAAMTSYYSGTYYPDSSDFDIWGQGTQVTVSS	koff	0.00104
FJ1427_P035MP03G03 (VHH, soluble VHH in periplasmic extract; also called clone nr) VHH: QVQLVESGGGLVQPGGSLGLSCAASGFTFDNYAMSWVRQAPGKGLEWVSSITGAGRGTHYADSVKGRFTISRDNAKNTLYLQMNSLKPEDTAVYYCAKYSSSTYYPPTPARGTDYRGPGTQVTVSS	koff	0.00114
FJ1427_P035MP03E10 (VHH, soluble VHH in periplasmic extract; also called clone nr) VHH: EVQLVESGGGLVQPGGSLRLSCAASGFTFRNYAMSWVRQAPGKGLEWVGGITGEGLGTIYQDSVEGRFTISRNNAKNTLYLQMNSLRSEDTAVYYCTKMASGTLFRDKPYEYTSRGQGTQVTVSS	koff	0.00207

Now look at this entry.
### Prompt Would you mind telling me what koff value was observed for FJ1427_P035MP03D03 (VHH, soluble VHH in periplasmic extract; also called clone nr) VHH: QVQLVESGGGLVQVGDSLRLSCAASGRTVGSANMGWFRQAPGKEREFVAVITWSTGSTVYADSVKGRFTISRDNAKNTVYLDLSSLKPEDTAVYYCAADVYPYSGNLNIMDYWGKGTQVTVSS ?
### Response 0.000538
